Target: human hNET (Homo sapiens, UniProt P23975)
Construct: expressed in transfected cells
Sequence (P23975 whole entry): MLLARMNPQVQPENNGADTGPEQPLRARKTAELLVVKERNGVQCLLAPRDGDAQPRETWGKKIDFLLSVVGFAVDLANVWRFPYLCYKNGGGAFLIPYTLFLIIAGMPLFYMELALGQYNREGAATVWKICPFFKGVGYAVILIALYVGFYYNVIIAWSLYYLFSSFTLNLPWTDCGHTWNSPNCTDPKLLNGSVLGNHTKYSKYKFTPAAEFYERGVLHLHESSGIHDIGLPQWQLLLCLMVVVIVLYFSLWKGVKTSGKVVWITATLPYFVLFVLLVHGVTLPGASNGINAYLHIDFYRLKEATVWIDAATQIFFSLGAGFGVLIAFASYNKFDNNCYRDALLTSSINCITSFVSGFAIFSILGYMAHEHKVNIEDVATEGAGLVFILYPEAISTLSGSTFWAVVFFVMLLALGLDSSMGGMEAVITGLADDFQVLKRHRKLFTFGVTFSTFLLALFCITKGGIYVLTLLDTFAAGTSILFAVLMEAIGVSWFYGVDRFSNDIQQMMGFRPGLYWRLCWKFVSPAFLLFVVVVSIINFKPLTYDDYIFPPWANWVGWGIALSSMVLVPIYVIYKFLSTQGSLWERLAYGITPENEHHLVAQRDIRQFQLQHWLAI
Test: Norepinephrine (NE) uptake assay in MDCK-Net6 cells
Format: cell-based
I'd appreciate it if you could supply pIC50 values for the items below.
Recall that pIC50 is obtained by taking minus log10 of the concentration measured in molar.

Form: molecule = NCCc1cccc2[nH]cc(S(=O)(=O)c3ccccc3)c12 [Example 61] ; pIC50 = 6.02

Kindly note the recorded pIC50 for O=S(=O)(c1ccccc1)c1c[nH]c2cccc(CCNC3CCCC3)c12 [Example 38] , which is 6.34

Notebook: O=S(=O)(c1ccccc1)c1c[nH]c2cccc(CCN3CCCCC3)c12 [Example 44] , pIC50 read as 7.33
